- target of assay: Nucleic Acid
- experiment: Inhibition of human estrogen receptor(ER) polymerase-chain reaction product
observation type: IC50 (µM)
Give bare numbers, in µM.

Field: example entries. Status: answers known.
// returns reported IC50 for input COC(=O)CCOc1cc2c(cc1OC)C(=O)N1CCC[C@H]1C=N2.Cn1cc(NC(=O)c2cc(NC(=O)c3cc(NC=O)cn3C)cn2C)cc1C(=O)NCCC(=N)N
50

Which measured IC50 value corresponds to Cn1cc(NC(=O)c2cc(NC(=O)c3cc(NC=O)cn3C)cn2C)cc1C(=O)NCCC(=N)N ?
50

Here is the next item to consider.
Any idea what IC50 was measured for COc1cc2c(cc1OCCC(=O)Nc1cc(C(=O)Nc3cc(C(=O)Nc4cc(C(=O)NCCC(=N)N)n(C)c4)n(C)c3)n(C)c1)N=C[C@@H]1CCCN1C2=O ?
8
